study_target: UniProtKB P33535
Sequence (P33535 whole entry): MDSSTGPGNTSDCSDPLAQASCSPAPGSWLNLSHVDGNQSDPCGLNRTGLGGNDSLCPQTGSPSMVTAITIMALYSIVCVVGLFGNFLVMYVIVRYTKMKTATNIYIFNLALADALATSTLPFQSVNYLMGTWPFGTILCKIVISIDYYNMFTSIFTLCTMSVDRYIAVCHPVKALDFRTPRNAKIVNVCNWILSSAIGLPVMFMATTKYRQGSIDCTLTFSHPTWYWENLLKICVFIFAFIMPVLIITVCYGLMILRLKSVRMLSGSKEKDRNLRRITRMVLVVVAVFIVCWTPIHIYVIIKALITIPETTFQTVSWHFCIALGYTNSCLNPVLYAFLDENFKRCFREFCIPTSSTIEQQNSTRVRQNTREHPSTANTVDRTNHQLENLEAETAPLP
assay_info: Stimulation of [35S]GTPγS binding, MOR
test_parameters: [35S]GTPγS binding, C6-MOR membranes; mean ± standard error
Give EC50 for every item shown.
Numbers only, in µM.

Worked examples follow.
CC(=O)N1CC[C@@H](NC(=O)[C@@H](N)Cc2c(C)cc(O)cc2C)c2cc(Oc3ccc(Cl)cc3)ccc21 0.00701
CC(=O)N1CC[C@@H](NC(=O)[C@@H](N)Cc2c(C)cc(O)cc2C)c2cc(Oc3cccc(Cl)c3)ccc21 0.00807
CCCN1CC[C@@H](NC(=O)[C@@H](N)Cc2c(C)cc(O)cc2C)c2cc(Cc3ccccc3)ccc21 0.0164

Now let's try a different one.
Prompt line: Could you share which EC50 value was measured for "CCCc1cc(Br)cc2c1NCC[C@H]2NC(=O)[C@@H](N)Cc1c(C)cc(O)cc1C" ?
Response line: 0.859
